The reported measurements were obtained from patent US7078195B2.

Tested on: E. coli GC 4560
Experiment: Broth dilution MIC
Type: cell-based
Conditions: Mueller-Hinton broth, 18 hours at 35° C.
endpoint.label: Antimicrobial Activity (MIC) (µg/mL)

Consider the worked cases shown below.
molecule	readout.value
COC1C(OC(C(NCCCNC(=O)C(CC(C)C)NC(=O)C(NC(=O)NC(C(=O)O)C(C)C)C2CCNC(=N)N2)C(=O)O)C2OC(n3ccc(=O)[nH]c3=O)C(O)C2O)OC(CN)C1O (stereo not shown) [AA-896-D1]	1
CC(C)C(NC(=O)NC(C(=O)NC(C(=O)NCCCNC(C(=O)O)C(OC1CC(O)C(CN)O1)C1OC(n2ccc(=O)[nH]c2=O)C(O)C1O)C(O)C(C)C)C1CCNC(=N)N1)C(=O)O (stereo not shown) [AA-896-C3]	0.5
CC(C)CC(NC(=O)C(NC(=O)NC(C(=O)O)C(C)C)C1CCNC(=N)N1)C(=O)NCCCNC(C(=O)O)C(OC1CC(O)C(CN)O1)C1OC(n2ccc(=O)[nH]c2=O)C(O)C1O (stereo not shown) [AA-896-D3]	0.25

A. CCC(C)CCCCC(=O)OC(C(C)C)C(NC(=O)C(NC(=O)NC(C(=O)O)C(C)C)C1CCNC(=N)N1)C(=O)NCCCNC(C(=O)O)C(O[C@@H]1O[C@H](CN)[C@@H](O)[C@H]1OC)C1OC(n2ccc(=O)[nH]c2=O)C(O)C1O (stereo partly shown) [AA-896-B3]
B. CC(C)CC(NC(=O)C(NC(=O)NC(C(=O)O)C(C)C)C1CCNC(=N)N1)C(=O)NCCCNC(C(=O)O)C(OC1OC(CN)C(O)C1O)C1OC(n2ccc(=O)[nH]c2=O)C(O)C1O (stereo not shown) [AA-896-D2]
C. CC(C)C(NC(=O)NC(C(=O)NC(C(=O)NCCCNC(C(=O)O)C(O[C@@H]1O[C@H](CN)[C@@H](O)[C@H]1O)C1OC(n2ccc(=O)[nH]c2=O)C(O)C1O)C(O)C(C)C)C1CCNC(=N)N1)C(=O)O (stereo partly shown) [AA-896-C2]
D. COC1C(OC(C(NCCCNC(=O)C(NC(=O)C(NC(=O)NC(C(=O)O)C(C)C)C2CCNC(=N)N2)C(O)C(C)C)C(=O)O)C2OC(n3ccc(=O)[nH]c3=O)C(O)C2O)OC(CN)C1O (stereo not shown) [AA-896-C1]
Arrange the 4 molecules from largest to smallest Antimicrobial Activity (MIC). Respond with an ordered listing of the labels, as requested.
C, D, B, A

----------
Test system: E. coli GC 2203
Assay: Broth dilution MIC
Format: cell-based
Settings: Mueller-Hinton broth, 18 hours at 35° C.
endpoint.label: Antimicrobial Activity (MIC) (µg/mL)

Consider the worked cases shown below.
compound	measured.target	readout.unit	readout.value
COC1C(OC(C(NCCCNC(=O)C(NC(=O)C(NC(=O)NC(C(=O)O)C(C)C)C2CCNC(=N)N2)C(OC(=O)CCCCCC(C)C)C(C)C)C(=O)O)C2OC(n3ccc(=O)[nH]c3=O)C(O)C2O)OC(CN)C1O (stereo not shown)	E. coli GC 2203	µg/mL	32
CC(C)CC(NC(=O)C(NC(=O)NC(C(=O)O)C(C)C)C1CCNC(=N)N1)C(=O)NCCCNC(C(=O)O)C(OC1OC(CN)C(O)C1O)C1OC(n2ccc(=O)[nH]c2=O)C(O)C1O (stereo not shown) [AA-896-D2]	E. coli GC 2203	µg/mL	16

a. CC(C)C(NC(=O)NC(C(=O)NC(C(=O)NCCCNC(C(=O)O)C(O[C@@H]1O[C@H](CN)[C@@H](O)[C@H]1O)C1OC(n2ccc(=O)[nH]c2=O)C(O)C1O)C(O)C(C)C)C1CCNC(=N)N1)C(=O)O (stereo partly shown)
b. COC1C(OC(C(NCCCNC(=O)C(NC(=O)C(NC(=O)NC(C(=O)O)C(C)C)C2CCNC(=N)N2)C(O)C(C)C)C(=O)O)C2OC(n3ccc(=O)[nH]c3=O)C(O)C2O)OC(CN)C1O (stereo not shown)
Please indicate which item has the smaller measured Antimicrobial Activity (MIC): a versus b Use the label to indicate which entry you chose.
a

----------
System: M. morganii GC 4531
Assay: Broth dilution MIC
Format: cell-based
Details: Mueller-Hinton broth, 18 hours at 35° C.
endpoint.label: Antimicrobial Activity (MIC)

Entry under review: COC1C(OC(C(NCCCNC(=O)C(CC(C)C)NC(=O)C(NC(=O)NC(C(=O)O)C(C)C)C2CCNC(=N)N2)C(=O)O)C2OC(n3ccc(=O)[nH]c3=O)C(O)C2O)OC(CN)C1O (stereo not shown) [AA-896-D1] . Reported Antimicrobial Activity (MIC)?
>32 µg/mL

Try COC1C(OC(C(NCCCNC(=O)C(NC(=O)C(NC(=O)NC(C(=O)O)C(C)C)C2CCNC(=N)N2)C(OC(=O)CCCCCC(C)C)C(C)C)C(=O)O)C2OC(n3ccc(=O)[nH]c3=O)C(O)C2O)OC(CN)C1O (stereo not shown) next.
>64 µg/mL

----------
Tested on: E. faecalis GC 242
Test: Broth dilution MIC
Type: cell-based
Conditions: Mueller-Hinton broth, 18 hours at 35° C.
endpoint.label: Antimicrobial Activity (MIC)

Consider the worked cases shown below.
compound	readout.value
CC(C)C(NC(=O)NC(C(=O)NC(C(=O)NCCCNC(C(=O)O)C(O[C@@H]1O[C@H](CN)[C@@H](O)[C@H]1O)C1OC(n2ccc(=O)[nH]c2=O)C(O)C1O)C(O)C(C)C)C1CCNC(=N)N1)C(=O)O (some centres unmarked)	>32 µg/mL
COC1C(OC(C(NCCCNC(=O)C(NC(=O)C(NC(=O)NC(C(=O)O)C(C)C)C2CCNC(=N)N2)C(OC(=O)CCCCCC(C)C)C(C)C)C(=O)O)C2OC(n3ccc(=O)[nH]c3=O)C(O)C2O)OC(CN)C1O (centres unmarked)	>64 µg/mL
CCC(C)CCCCC(=O)OC(C(C)C)C(NC(=O)C(NC(=O)NC(C(=O)O)C(C)C)C1CCNC(=N)N1)C(=O)NCCCNC(C(=O)O)C(O[C@@H]1O[C@H](CN)[C@@H](O)[C@H]1OC)C1OC(n2ccc(=O)[nH]c2=O)C(O)C1O (some centres unmarked)	>32 µg/mL
CC(C)CC(NC(=O)C(NC(=O)NC(C(=O)O)C(C)C)C1CCNC(=N)N1)C(=O)NCCCNC(C(=O)O)C(OC1OC(CN)C(O)C1O)C1OC(n2ccc(=O)[nH]c2=O)C(O)C1O (centres unmarked) [AA-896-D2]	>32 µg/mL

Now take the following compound into account.
Entry under review: COC1C(OC(C(NCCCNC(=O)C(NC(=O)C(NC(=O)NC(C(=O)O)C(C)C)C2CCNC(=N)N2)C(O)C(C)C)C(=O)O)C2OC(n3ccc(=O)[nH]c3=O)C(O)C2O)OC(CN)C1O (centres unmarked) . Reported Antimicrobial Activity (MIC)?
>32 µg/mL

----------
Tested on: E. coli GC 3226
Test: Broth dilution MIC
Assay type: cell-based
Conditions: Mueller-Hinton broth, 18 hours at 35° C.
endpoint.label: Antimicrobial Activity (MIC) (µg/mL)

molecule	measured.target	Antimicrobial Activity (MIC), µg/mL
COC1C(OC(C(NCCCNC(=O)C(NC(=O)C(NC(=O)NC(C(=O)O)C(C)C)C2CCNC(=N)N2)C(O)C(C)C)C(=O)O)C2OC(n3ccc(=O)[nH]c3=O)C(O)C2O)OC(CN)C1O (centres unmarked)	E. coli GC 3226	32

1. CC(C)C(NC(=O)NC(C(=O)NC(C(=O)NCCCNC(C(=O)O)C(OC1CC(O)C(CN)O1)C1OC(n2ccc(=O)[nH]c2=O)C(O)C1O)C(O)C(C)C)C1CCNC(=N)N1)C(=O)O (centres unmarked)
2. COC1C(OC(C(NCCCNC(=O)C(NC(=O)C(NC(=O)NC(C(=O)O)C(C)C)C2CCNC(=N)N2)C(OC(=O)CCCCCC(C)C)C(C)C)C(=O)O)C2OC(n3ccc(=O)[nH]c3=O)C(O)C2O)OC(CN)C1O (centres unmarked)
Given the listed records, identify the one among 1 and 2 with higher Antimicrobial Activity (MIC). Use the label to indicate which entry you chose.
2

----------
System: S. aureus GC 4536
Experiment: Broth dilution MIC
Assay type: cell-based
Settings: Mueller-Hinton broth, 18 hours at 35° C.
Documented Antimicrobial Activity (MIC) across a set of molecules

Consider the worked cases shown below.
molecule	readout.value
COC1C(OC(C(NCCCNC(=O)C(NC(=O)C(NC(=O)NC(C(=O)O)C(C)C)C2CCNC(=N)N2)C(OC(=O)CCCCC(C)C)C(C)C)C(=O)O)C2OC(n3ccc(=O)[nH]c3=O)C(O)C2O)OC(CN)C1O (stereo not shown) [AA-896-B6]	>64 µg/mL
COC1C(OC(C(NCCCNC(=O)C(NC(=O)C(NC(=O)NC(C(=O)O)C(C)C)C2CCNC(=N)N2)C(O)C(C)C)C(=O)O)C2OC(n3ccc(=O)[nH]c3=O)C(O)C2O)OC(CN)C1O (stereo not shown) [AA-896-C1]	>32 µg/mL
CC(C)C(NC(=O)NC(C(=O)NC(C(=O)NCCCNC(C(=O)O)C(O[C@@H]1O[C@H](CN)[C@@H](O)[C@H]1O)C1OC(n2ccc(=O)[nH]c2=O)C(O)C1O)C(O)C(C)C)C1CCNC(=N)N1)C(=O)O (stereo partly shown) [AA-896-C2]	>32 µg/mL

Now take the following molecule into account.
Entry under review: CCC(C)CCCCC(=O)OC(C(C)C)C(NC(=O)C(NC(=O)NC(C(=O)O)C(C)C)C1CCNC(=N)N1)C(=O)NCCCNC(C(=O)O)C(O[C@@H]1O[C@H](CN)[C@@H](O)[C@H]1OC)C1OC(n2ccc(=O)[nH]c2=O)C(O)C1O (stereo partly shown) [AA-896-B3] . Reported Antimicrobial Activity (MIC)?
>32 µg/mL
